Where do the numbers come from? From paper PMC4595804.

Reported IC50 values for a set of compounds
Target: CCL17 (Homo sapiens, UniProt Q92583)
Construct: codes for the mature CCL17 or CCL22 with an N-terminal thioredoxin-hexahistidin (TRX- (His)6) tag; thioredoxin (TRX) (N, cleaved yes); (His)6 (N, cleaved yes)
Sequence (Q92583 24-94): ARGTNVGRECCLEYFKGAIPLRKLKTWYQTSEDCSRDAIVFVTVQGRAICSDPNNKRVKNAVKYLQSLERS
Test: TRIC-r calcium assay, neutraligand protocol: compound preincubated with CCL17, EGFP-CCR4+Gqi5+ HEK cells
Settings: 5 nM CCL17 preincubated 1 h with compound, 21 °C; read-out: IC50 for CCL17 neutralization (calcium assay)
Description: EGFP-CCR4^+Gqi5^+HEKcells were loaded with fluorescent Ca^2+-indicator Indo-1 AM (5μM, Interchim) for 45 min at 37 °C. […] Dye loaded cells were placed in the FlexStation 3 (Molecular Devices). […] The calcium response values (height of peak response over baseline) were determined. […] Hit molecules were confirmed by performing concentration-response curves and their half maximal inhibitory concentration (IC50) values were calculated using the Kaleidagraph software.
Respond with the bare value in µM.

>>> df
                                   compound  observed_result
0  CN1C(=O)N(C)C2=NNC=NC2(O)C1=O (centres unmarked) [GPN355]              9.6

As a next step, examine the compound that follows.
Give measured IC50 for COc1cc(C2=N/C(=C\c3ccccc3)C(=O)O2)cc(OC)c1OC [GPN251] (CCL17 (Homo sapiens, UniProt Q92583)).
0.9
